Give measured pIC50 for each item. Keep answers brief.
Molecular target: eIF1A without NTT (Homo sapiens, UniProt P47813)
Construct: His-bdSUMO (cleaved yes); made in house; host or cells: E. coli (BL-21)
Sequence (P47813 31-144 limits assumed): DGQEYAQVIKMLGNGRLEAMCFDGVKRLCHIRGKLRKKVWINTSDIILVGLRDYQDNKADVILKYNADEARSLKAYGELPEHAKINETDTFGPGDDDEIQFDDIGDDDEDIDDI
Experiment: Fluorescence binding assay with NTT-truncated eIF1A
Details: eIF1A Δ NTT; from the titration data; read-out: IC50 (eIF1A Δ NTT titration block)
Numbers only, as −log10 of the molar value.

Past entries and their recorded results:
O=C(COc1ccccc1[N+](=O)[O-])NCc1ccc(-c2ccc(Br)cc2)o1	4.52
CCOc1cc(C(=O)Nc2ccc(Cl)c(-c3nc4ccccc4[nH]3)c2)cc(OCC)c1OCC	3.96
COc1cccc(Nc2nc(-c3ccc(NC(C)=O)cc3)c(C)s2)c1	4.67
CN1CCN(S(=O)(=O)c2ccc(N3Cc4cc5c(cc4C4(CCCC4)C3)OCCO5)nc2)CC1	4.36
CN(C)CC1CCn2cc(c3ccccc32)C2=C(C(=O)NC2=O)c2cn(c3ccccc23)CCO1 (stereo not drawn)	4.42

Now for another entry.
Write pIC50 of Cc1cc(-n2c(C)cc(-c3csc(N)n3)c2C)no1 ; system used: eIF1A without NTT (Homo sapiens, UniProt P47813)
4.43

---

Target: RPS10 (Homo sapiens, UniProt P46783)
Construct: made in house; host or cells: E. coli BL-21
Assay type: binding
Settings: 1Ai conc. 64 uM
I'd appreciate it if you marked entries rule met when RPS10 fluorescence ratio to control is lower than 0.5 and rule not met when it is not.

O=C(C=Cc1ccc(Cl)s1)Nc1cccc2ncccc12	rule not met
Oc1cc(Cl)ccc1Oc1ccc(Cl)cc1Cl	rule not met
O=C(COc1ccccc1[N+](=O)[O-])NCc1ccc(-c2ccc(Br)cc2)o1	rule not met
COc1cccc(Nc2nc(-c3ccc(NC(C)=O)cc3)c(C)s2)c1	rule met
Cc1cc(-n2c(C)cc(-c3csc(N)n3)c2C)no1	rule met

Kindly consider the entry below.
Please let me know if C=CCNC(=O)CN1CCN(Cc2nc3cc(-c4ccc(Cl)cc4)sc3c(=O)[nH]2)CC1 shows RPS10 fluorescence ratio to control below 0.5.
rule met

---

Exercise: for every item that follows, state its recorded IC50.
Molecular target: RPS10 (Homo sapiens)
Construct: made in house; host or cells: E. coli BL-21
Assay type: binding
Conditions: summary table; fluorescence binding assay; read-out: IC50 concentration (µM), RPS10
# output: numeric value plus its unit

State the recorded IC50 for every item in the following list.
1. CCOC(=O)c1ccsc1NC(=O)CN1C(=O)NC(C)(c2cccc3ccccc23)C1=O (stereo not shown)
2. Cc1ccc(C(=O)c2cc(O)c(O)c([N+](=O)[O-])c2)cc1
3. COc1ccc(C=C2CSc3ccc(Cl)cc3C2=O)cc1O
4. O=S(=O)(c1ccccc1)N1CCN(C2c3ccccc3-c3ccccc32)CC1
5. Cn1c(=O)c2ccccc2n2c(CNC(c3ccc4c(c3)CCC4)c3cccs3)nnc12 (stereo not shown)

3.7 µM
7.4 µM
6.7 µM
4.8 µM
4.5 µM

The following molecules each have a reported value; give each one's IC50.
1. COc1cccc(Nc2nc(-c3ccc(NC(C)=O)cc3)c(C)s2)c1
2. O=c1cc(CN2CCOCC2)occ1OCCCCCSc1ccnc2cc(C(F)(F)F)ccc12

["7.7 µM", "22.1 µM"]

---

Consider the following compounds; for each one, report its RPS10 fluorescence ratio to control.
Target: RPS10 (Homo sapiens, UniProt P46783)
Construct: made in house; host or cells: E. coli BL-21
Type: binding
Conditions: 1Ai conc. 8 uM
Answers are plain numbers.

Value sought for every listed compound: RPS10 fluorescence ratio to control.
1. O=C(CSc1nc(-c2ccccc2)cn1-c1ccccc1)NC(=O)Nc1ccccc1
2. CN1CCN(S(=O)(=O)c2ccc(N3Cc4cc5c(cc4C4(CCCC4)C3)OCCO5)nc2)CC1
3. Oc1cc(Cl)ccc1Oc1ccc(Cl)cc1Cl
4. C=CCNC(=O)CN1CCN(Cc2nc3cc(-c4ccc(Cl)cc4)sc3c(=O)[nH]2)CC1
5. COc1cccc(Nc2nc(-c3ccc(NC(C)=O)cc3)c(C)s2)c1
6. O=c1cc(CN2CCOCC2)occ1OCCCCCSc1ccnc2cc(C(F)(F)F)ccc12
7. COc1ccc2oc(C(=O)OC(C)C(=O)Nc3sccc3C(N)=O)c(C)c2c1 (stereo not drawn)

[0.08815, 0.9434, 0.7864, 0.7612, 0.4668, 1.2215, 1.07]

For the 2 compounds below, give their RPS10 fluorescence ratio to control values.
1. Cc1ccc(C)n1-c1cc([N+](=O)[O-])ccc1N1CCN(C(=O)c2ccccc2)CC1
2. Cc1cc(-n2c(C)cc(-c3csc(N)n3)c2C)no1

1. 0.9597
2. 0.7733

---

Target: RPS10 (Homo sapiens)
Construct: made in house; host or cells: E. coli BL-21
Format: binding
Conditions: read-out: RPS10 IC50
pIC50: −log10 of the molar value.
Where pIC50 equals or exceeds 5, the correct label is class 1; where it does not, the label is class 0.

C=CCNC(=O)CN1CCN(Cc2nc3cc(-c4ccc(Cl)cc4)sc3c(=O)[nH]2)CC1	class 0
Cc1cc(-n2c(C)cc(-c3csc(N)n3)c2C)no1	class 1
O=c1cc(CN2CCOCC2)occ1OCCCCCSc1ccnc2cc(C(F)(F)F)ccc12	class 0

Assess whether reported pIC50 for COc1ccc(C=C2CSc3ccc(Cl)cc3C2=O)cc1O sits at 5 or higher.
class 1

Given the entry CCOC(=O)c1ccsc1NC(=O)CN1C(=O)NC(C)(c2cccc3ccccc23)C1=O (stereo not shown) , answer whether its pIC50 meets or surpasses 5.
class 1

# check: pIC50 of O=C(COc1ccccc1[N+](=O)[O-])NCc1ccc(-c2ccc(Br)cc2)o1 is greater than or equal to 5
class 1

Item Cn1c(=O)c2ccccc2n2c(CNC(c3ccc4c(c3)CCC4)c3cccs3)nnc12 (stereo not shown) with pIC50 of 5 or above?
class 1

---

Observed ratio (nsp1/gfp) for UniProt P0DTD1, reported per entry below.
One number for each entry.

Cc1cc(-n2c(C)cc(-c3csc(N)n3)c2C)no1 [1Ai-6464]	0.562
CN1CCN(S(=O)(=O)c2ccc(N3Cc4cc5c(cc4C4(CCCC4)C3)OCCO5)nc2)CC1 [1Ai-3564]	0.501
CCOC(=O)c1ccsc1NC(=O)CN1C(=O)NC(C)(c2cccc3ccccc23)C1=O (stereo not shown) [1Ai-1861]	0.600
Cn1c(=O)c2ccccc2n2c(CNC(c3ccc4c(c3)CCC4)c3cccs3)nnc12 (stereo not shown) [1Ai-7688]	0.441
Cc1ccc(C(=O)c2cc(O)c(O)c([N+](=O)[O-])c2)cc1 [1Ai-5576]	0.424
O=C(CSc1nc(-c2ccccc2)cn1-c1ccccc1)NC(=O)Nc1ccccc1 [1Ai-2383]	0.419
CCOc1cc(C(=O)Nc2ccc(Cl)c(-c3nc4ccccc4[nH]3)c2)cc(OCC)c1OCC [1Ai-5677]	0.572
O=c1cc(CN2CCOCC2)occ1OCCCCCSc1ccnc2cc(C(F)(F)F)ccc12 [1Ai-5730]	0.524

Provide ratio (nsp1/gfp) values for the following items, in order.
1. CN(C)CC1CCn2cc(c3ccccc32)C2=C(C(=O)NC2=O)c2cn(c3ccccc23)CCO1 (stereo not shown) [1Ai-5662]
2. COc1ccc2oc(C(=O)OC(C)C(=O)Nc3sccc3C(N)=O)c(C)c2c1 (stereo not shown) [1Ai-3044]

1: 0.408; 2: 0.455

---

Target: RPS10 (Homo sapiens)
Construct: made in house; host or cells: E. coli BL-21
Format: binding
Conditions: source data Fig. 2B; read-out: IC50 (line under RPS10 binding data)
reported.metric: IC50
Express your answer as a number followed by its unit.

Output reported IC50 of the compound O=C(CSc1nc(-c2ccccc2)cn1-c1ccccc1)NC(=O)Nc1ccccc1 on RPS10 (Homo sapiens).
660 nM

---

These records show GFP reporter ratio nsp1/gfp, rep 2 for NSP1 (Severe acute respiratory syndrome coronavirus 2).
Give bare numbers.

// below: answered compounds
Oc1cc(Cl)ccc1Oc1ccc(Cl)cc1Cl	0.4277
COc1ccc(CN(Cc2nn3c(=O)cc(C)nc3s2)C(C)Cc2cccs2)cc1 (stereo not drawn)	0.3941
Cc1ccc(C)n1-c1cc([N+](=O)[O-])ccc1N1CCN(C(=O)c2ccccc2)CC1	0.4961

For each of the compounds below, note its GFP reporter ratio nsp1/gfp, rep 2.
1. O=C(COc1ccccc1[N+](=O)[O-])NCc1ccc(-c2ccc(Br)cc2)o1
2. O=C(C=Cc1ccc(Cl)s1)Nc1cccc2ncccc12
3. COc1cccc(Nc2nc(-c3ccc(NC(C)=O)cc3)c(C)s2)c1

1: 0.4378; 2: 0.3807; 3: 0.4006

---

Target: RPS10 (Homo sapiens)
Construct: made in house; host or cells: E. coli BL-21
Assay type: binding
Conditions: 1Ai conc. 1 uM
If the reported RPS10 fluorescence ratio to control equals or exceeds 1, assign MET. If not, assign NOT MET.

Cc1ccc(C)n1-c1cc([N+](=O)[O-])ccc1N1CCN(C(=O)c2ccccc2)CC1	NOT MET
Cn1c(=O)c2ccccc2n2c(CNC(c3ccc4c(c3)CCC4)c3cccs3)nnc12 (stereo not shown)	MET
COc1cccc(Nc2nc(-c3ccc(NC(C)=O)cc3)c(C)s2)c1	NOT MET

Now look at this entry.
Quick check, RPS10 fluorescence ratio to control >= 1? CN(C)CC1CCn2cc(c3ccccc32)C2=C(C(=O)NC2=O)c2cn(c3ccccc23)CCO1 (stereo not shown)
NOT MET
